Target: human V1a receptor (Homo sapiens (Human), UniProt P37288)
Sequence (P37288 whole entry): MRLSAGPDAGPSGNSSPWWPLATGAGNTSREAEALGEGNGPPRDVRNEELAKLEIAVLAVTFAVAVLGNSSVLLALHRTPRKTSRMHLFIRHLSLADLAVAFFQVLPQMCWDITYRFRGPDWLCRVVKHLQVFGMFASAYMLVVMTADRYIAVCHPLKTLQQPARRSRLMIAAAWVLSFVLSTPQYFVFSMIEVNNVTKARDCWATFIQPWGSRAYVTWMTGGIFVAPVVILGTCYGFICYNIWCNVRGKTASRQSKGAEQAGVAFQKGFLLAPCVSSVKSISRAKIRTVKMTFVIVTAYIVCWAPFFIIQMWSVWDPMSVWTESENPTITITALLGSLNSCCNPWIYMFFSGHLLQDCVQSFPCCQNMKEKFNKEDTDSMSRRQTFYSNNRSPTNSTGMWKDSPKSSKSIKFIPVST
Assay: Cellular in vitro assay for vasopressin receptor activity, V1a receptor cell line (aequorin luminescence)
Settings: CHO cell line transfected with human V1a receptor; [Arg8]-vasopressin at EC50; read-out: IC50 hV1a
MEASURED PARAMETER: IC50 (nM)

Sample answers from the record:
COMPOUND	MEASURED PARAMETER	OBSERVED VALUE
CC(=O)c1nc(Cn2nc(-c3ccc(Cl)cc3)n(C[C@H](O)C(F)(F)F)c2=O)nn1-c1cccc(Cl)c1	IC50	34.5
CC(=O)c1nc(Cn2nc(-c3ccc(Cl)cc3)n(C[C@H](O)C(F)(F)F)c2=O)nn1-c1ccccc1Cl	IC50	0.5
CC(=O)c1nc(Cn2nc(-c3ccc(Cl)cc3)n(C[C@H](O)C(F)(F)F)c2=O)nn1-c1cccc(F)c1	IC50	7.5

(a) COC(=O)Cn1nc(-c2ccccc2Cl)nc1Cn1nc(-c2ccc(Cl)cc2)n(C[C@H](O)C(F)(F)F)c1=O
(b) CC(=O)c1nc(Cn2nc(-c3ccc(Cl)cc3)n(CC(=O)C(F)(F)F)c2=O)nn1-c1cccc(Cl)c1
Q. Hello, I am sorting some records. Could you say if a or b has the smaller IC50 value? State the label of the item chosen.
A. a
